- TARGET: T1, Rtt103p CTD-interacting domain (CID) (3-131-6xHIS) (yeast, UniProt Q05543 3-131)
- T1 construct: Used unlabelled for fluorescence anisotropy and the 13C-HSQC titration, 15N-labelled for the TROSY titration and 15N,13C-labelled for the structure; also called Rtt103p CID; Rtt103 CID
- T1 sequence (looked up): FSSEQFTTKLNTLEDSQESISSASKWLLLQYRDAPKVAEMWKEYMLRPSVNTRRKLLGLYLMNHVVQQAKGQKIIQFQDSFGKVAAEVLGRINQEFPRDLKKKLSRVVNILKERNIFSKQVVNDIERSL
- EXPERIMENTAL_DETAILS: fluorescence polarisation; fluorescence anisotropy; Rtt103p CID titrated into 10 nM N-terminally FAM-labelled CTD peptide; 10°C; 35 mM KH2PO4, 100 mM KCl, pH 6.8; 1:1 model with non-specific binding (DynaFit)
- COND: both partners purified
Non-standard residues stand in square brackets, D forms with d. No end group written: not given here. pT = C[C@@H](OP(=O)(O)O)[C@H](N)C(=O)O; FAM = 5,6-carboxyfluorescein
REPORTED_PROPERTY: Kd (µM)
Record the value in µM, omitting the unit from your answer.

Record request: Kd value, item {FAM}-PSYSP[pT]SPSYS (consensus heptad repeats of the C-terminal domain of the largest subunit of RNA polymerase II (Rpb1); residues named by heptad position and repeat letter (P6a ... S2c); source: synthetic peptide (JPT, Berlin, or Clonestar, Brno)) [FAM-PSYSP(pT)SPSYS]
18
